# Test system: Acinetobacter baumannii ATCC 19606
# method_description: Antibacterial screen at 200 μg/mL (cell density vs control)
# Assay type: cell-based
# particulars: peptide 200 μg/mL, CAMHB, 5 × 10^5 CFU/mL, 37°C, 12 h, OD600; control (no AMP) = 1; three biological replicates
measurement_name: cell density relative to control, A. baumannii ATCC 19606

Query string: Entry MYSVWPKSLRSVAGRGPKHRC [Cand-139, chemically synthesized candidate AMP predicted from marine biofilm bacteria] : reported cell density relative to control, A. baumannii ATCC 19606 = ?
Result string: 0.959

Query string: Entry MRHNMCRIGGRL [Cand-203, chemically synthesized candidate AMP predicted from marine biofilm bacteria] : reported cell density relative to control, A. baumannii ATCC 19606 = ?
Result string: 1

Query string: Entry MCTSKKKVWRCVAPS [Cand-33, chemically synthesized candidate AMP predicted from marine biofilm bacteria] : reported cell density relative to control, A. baumannii ATCC 19606 = ?
Result string: 0.813

Query string: Entry MRPRLRKRLLR [Cand-187, chemically synthesized candidate AMP predicted from marine biofilm bacteria] : reported cell density relative to control, A. baumannii ATCC 19606 = ?
Result string: 0.766

Query string: Entry MIYICTRITKCKLHGGCSSVG [Cand-155, chemically synthesized candidate AMP predicted from marine biofilm bacteria] : reported cell density relative to control, A. baumannii ATCC 19606 = ?
Result string: 1

Query string: Entry MKALRRFLSCKVCSHALN [Cand-160, chemically synthesized candidate AMP predicted from marine biofilm bacteria] : reported cell density relative to control, A. baumannii ATCC 19606 = ?
Result string: 0.001

###

# Test system: Bacillus subtilis ATCC 23857
# method_description: Antibacterial screen at 200 μg/mL (cell density vs control)
# Assay type: cell-based
# particulars: peptide 200 μg/mL, CAMHB, 5 × 10^5 CFU/mL, 37°C, 12 h, OD600; control (no AMP) = 1; three biological replicates
# Procedure: Eight bacterial strains were utilized in the antibacterial experiment. S. aureus ATCC 12600, B. subtilis ATCC 23857, E. coli ATCC 11775, and A. baumannii ATCC 19606 were purchased from Shanghai Beinuo Biology. […] Three biological replicates were conducted for each group, and OD600 values were measured after incubation at 37°C for 12 h. […] The MIC of a peptide against a bacterium was determined as the minimum peptide concentration at which there was no visible bacterial growth.
measurement_name: cell density relative to control, B. subtilis ATCC 23857
Answer using only a numeral; do not append any unit.

Query string: Entry MRQGMCRIGGRL [Cand-55, chemically synthesized candidate AMP predicted from marine biofilm bacteria] : reported cell density relative to control, B. subtilis ATCC 23857 = ?
Result string: 0.908

Query string: Entry MWTVRPRICAARGRL [Cand-172, chemically synthesized candidate AMP predicted from marine biofilm bacteria] : reported cell density relative to control, B. subtilis ATCC 23857 = ?
Result string: 0

Query string: Entry MQPILKKAAPKHVGYFYKCYL [Cand-119, chemically synthesized candidate AMP predicted from marine biofilm bacteria] : reported cell density relative to control, B. subtilis ATCC 23857 = ?
Result string: 0.838

Query string: Entry MCCVGRGVSFLRTRKCFIKS [Cand-161, chemically synthesized candidate AMP predicted from marine biofilm bacteria] : reported cell density relative to control, B. subtilis ATCC 23857 = ?
Result string: 0

Query string: Entry MLRRIGRMWRKLHPHGQ [Cand-10, chemically synthesized candidate AMP predicted from marine biofilm bacteria] : reported cell density relative to control, B. subtilis ATCC 23857 = ?
Result string: 0.032

Query string: Entry MYSVWPKSLRSVAGRGPKHRC [Cand-139, chemically synthesized candidate AMP predicted from marine biofilm bacteria] : reported cell density relative to control, B. subtilis ATCC 23857 = ?
Result string: 0.931

Query string: Entry MRPCMCRIGGRL [Cand-19, chemically synthesized candidate AMP predicted from marine biofilm bacteria] : reported cell density relative to control, B. subtilis ATCC 23857 = ?
Result string: 1

Query string: Entry MVKLLKKMVSLYH [Cand-122, chemically synthesized candidate AMP predicted from marine biofilm bacteria] : reported cell density relative to control, B. subtilis ATCC 23857 = ?
Result string: 0.002

Query string: Entry MGRISCMWSSSYKCRFNCYF [Cand-20, chemically synthesized candidate AMP predicted from marine biofilm bacteria] : reported cell density relative to control, B. subtilis ATCC 23857 = ?
Result string: 1

Query string: Entry MCTIRTCRRSRPHHCSTHC [Cand-101, chemically synthesized candidate AMP predicted from marine biofilm bacteria] : reported cell density relative to control, B. subtilis ATCC 23857 = ?
Result string: 0

Query string: Entry MRPGMCRIGGRL [Cand-22, chemically synthesized candidate AMP predicted from marine biofilm bacteria] : reported cell density relative to control, B. subtilis ATCC 23857 = ?
Result string: 1

Query string: Entry MKRLKKCVLSSLSI [Cand-126, chemically synthesized candidate AMP predicted from marine biofilm bacteria] : reported cell density relative to control, B. subtilis ATCC 23857 = ?
Result string: 0.301

###

# System: Acinetobacter baumannii ATCC 19606
# method_description: Antibacterial screen at 200 μg/mL (cell density vs control)
# Type: cell-based
# particulars: peptide 200 μg/mL, CAMHB, 5 × 10^5 CFU/mL, 37°C, 12 h, OD600; control (no AMP) = 1; three biological replicates
Provide the reported cell density relative to control, A. baumannii ATCC 19606 of each item.
Answer using only a numeral; do not append any unit.

Query string: // lookup cell density relative to control, A. baumannii ATCC 19606 | system=Acinetobacter baumannii ATCC 19606 | key= MWAVARGRR [Cand-195, chemically synthesized candidate AMP predicted from marine biofilm bacteria]
Result string: 1

Query string: // lookup cell density relative to control, A. baumannii ATCC 19606 | system=Acinetobacter baumannii ATCC 19606 | key= MFKFFCCIFYMCRIKTH [Cand-18, chemically synthesized candidate AMP predicted from marine biofilm bacteria]
Result string: 0.014

Query string: // lookup cell density relative to control, A. baumannii ATCC 19606 | system=Acinetobacter baumannii ATCC 19606 | key= MVKLLKKMVSLYH [Cand-122, chemically synthesized candidate AMP predicted from marine biofilm bacteria]
Result string: 0.907

###

# Test system: Acinetobacter baumannii ATCC 19606
# method_description: Antibacterial screen at 200 μg/mL (cell density vs control)
# Format: cell-based
# particulars: peptide 200 μg/mL, CAMHB, 5 × 10^5 CFU/mL, 37°C, 12 h, OD600; control (no AMP) = 1; three biological replicates
measurement_name: cell density relative to control, A. baumannii ATCC 19606

Query string: Entry MSKIKAKIGHLR [Cand-98, chemically synthesized candidate AMP predicted from marine biofilm bacteria] : reported cell density relative to control, A. baumannii ATCC 19606 = ?
Result string: 0.74

Query string: Entry MCRWWPDWWHHRWWHCRGCCRFCRG [Cand-111, chemically synthesized candidate AMP predicted from marine biofilm bacteria] : reported cell density relative to control, A. baumannii ATCC 19606 = ?
Result string: 1

Query string: Entry MPASRRCRPCCRLSGC [Cand-7, chemically synthesized candidate AMP predicted from marine biofilm bacteria] : reported cell density relative to control, A. baumannii ATCC 19606 = ?
Result string: 1

###

# Tested on: Salmonella bongori ATCC 43975
# method_description: Antibacterial screen at 200 μg/mL (cell density vs control)
# Assay type: cell-based
# particulars: peptide 200 μg/mL, CAMHB, 5 × 10^5 CFU/mL, 37°C, 12 h, OD600; control (no AMP) = 1; three biological replicates
Provide the reported cell density relative to control, S. bongori ATCC 43975 of each item.
Answer using only a numeral; do not append any unit.

Query string: Entry MLKLSWNLCRPIGRRW [Cand-186, chemically synthesized candidate AMP predicted from marine biofilm bacteria] : reported cell density relative to control, S. bongori ATCC 43975 = ?
Result string: 0.245

Query string: Entry MRQGMCRIGGRL [Cand-55, chemically synthesized candidate AMP predicted from marine biofilm bacteria] : reported cell density relative to control, S. bongori ATCC 43975 = ?
Result string: 1

Query string: Entry MPASRRCRPCCRLSGC [Cand-7, chemically synthesized candidate AMP predicted from marine biofilm bacteria] : reported cell density relative to control, S. bongori ATCC 43975 = ?
Result string: 1

Query string: Entry MCTIRTCRRSRPHHCSTHC [Cand-101, chemically synthesized candidate AMP predicted from marine biofilm bacteria] : reported cell density relative to control, S. bongori ATCC 43975 = ?
Result string: 0.855

Query string: Entry MSCDLQKVRGCLPRLIVHK [Cand-142, chemically synthesized candidate AMP predicted from marine biofilm bacteria] : reported cell density relative to control, S. bongori ATCC 43975 = ?
Result string: 0.989

Query string: Entry MWTVRPRICAARGRL [Cand-172, chemically synthesized candidate AMP predicted from marine biofilm bacteria] : reported cell density relative to control, S. bongori ATCC 43975 = ?
Result string: 0.898
